Test system: CCRIS mutagenicity, Ames/micronucleus/aberration tests
Experiment: CCRIS mutagenicity studies
Details: Test System: AMES SALMONELLA TYPHIMURIUM; Strain/Indicator: TA100; Metabolic Activation: NONE; Method: PREINCUBATION
Activity calls are given as the source filed them. How the calls were made is not given here.
Permitted responses: active, inactive

GET /call?item= CC[C@]1(O)C[C@@H]2CN(CCc3c([nH]c4ccccc34)[C@@](C(=O)OC)(c3cc4c(cc3OC)N(C)[C@H]3[C@@](O)(C(=O)OC)[C@H](OC(C)=O)[C@]5(CC)C=CCN6CC[C@]43[C@@H]65)C2)C1 returns the recorded outcome of this test.
inactive

GET /call?item= COc1cc(C)cc2c(O)c(-c3c(C)cc4c(O)ccc(O)c4c3OC)cc(O)c12 returns the recorded outcome of this test.
inactive

GET /call?item= C#C[C@]1(O)CC[C@H]2[C@@H]3CCc4cc(O)ccc4[C@H]3CC[C@@]21C returns the recorded outcome of this test.
inactive

GET /call?item= O[C@@H]1[C@H]2O[C@H]2c2c(ccc3c2ccc2ccccc23)[C@H]1O returns the recorded outcome of this test.
active

GET /call?item= CC1CNCC(C)O1 (stereo unspecified) returns the recorded outcome of this test.
inactive

GET /call?item= C=CC(=O)O returns the recorded outcome of this test.
inactive

GET /call?item= N[C@@H](CCC(=O)N[C@@H](CS)C(=O)NCC(=O)O)C(=O)O returns the recorded outcome of this test.
inactive

GET /call?item= Nc1nc(N)c2nc(-c3ccccc3)c(N)nc2n1 returns the recorded outcome of this test.
inactive

GET /call?item= O=C1c2ccccc2C(=O)c2c1ccc(O)c2O returns the recorded outcome of this test.
inactive

GET /call?item= Cc1ccc(N=C=O)cc1N=C=O returns the recorded outcome of this test.
inactive

GET /call?item= CCCCN(CC(O)c1ccc([O-])c([N+]#N)c1)N=O (stereo unspecified) returns the recorded outcome of this test.
active

###

System: CCRIS mutagenicity, Ames/micronucleus/aberration tests
Experiment: CCRIS mutagenicity studies
Conditions: Test System: E.COLI; Strain/Indicator: WP2UVRA; Metabolic Activation: NONE; Method: PREINCUBATION
Activity calls are given as the source filed them. The rule behind the calls is not given here.
REPORTED_ENDPOINT: mutagenic call

Look up and report measured mutagenic call for this entry: Cc1ccc(N)cc1C
inactive; negative

Look up and report measured mutagenic call for this entry: CC(C)Nc1ccc(Nc2ccccc2)cc1
inactive; negative

Look up and report measured mutagenic call for this entry: O=[N+]([O-])c1ccc(Cl)cc1Cl
inactive; negative

###

Test system: CCRIS mutagenicity, Ames/micronucleus/aberration tests
Assay: CCRIS mutagenicity studies
Conditions: Test System: AMES SALMONELLA TYPHIMURIUM; Strain/Indicator: TA98; Metabolic Activation: RAT, LIVER, S-9, AROCLOR 1254; Method: STANDARD PLATE
Calls of active or inactive are those of the source. The rule behind the calls is not given here.
Permitted responses: true (1) for active, false (0) for inactive

GET /call?item= ClC(Cl)(Cl)Cl returns the recorded outcome of this test.
false (0)

GET /call?item= C=C(C)C1C=C2C(COC(=O)CCCCCCCCCCCCCCCCC)=CC=C2C(C)=CC1 (configuration not stated) returns the recorded outcome of this test.
false (0)

GET /call?item= C1=Cc2c(cc3ccc4cccc5ccc2c3c45)CC1 returns the recorded outcome of this test.
true (1)

GET /call?item= Nc1ccccc1N returns the recorded outcome of this test.
true (1)

GET /call?item= CC1=CC(=O)CC(C)(C)C1 returns the recorded outcome of this test.
false (0)

GET /call?item= O=[N+]([O-])O[C@@H]1CO[C@H]2[C@@H]1OC[C@@H]2O returns the recorded outcome of this test.
false (0)

GET /call?item= CC1(C)C(=O)[C@]2(C)CC[C@H]1C2 returns the recorded outcome of this test.
false (0)

GET /call?item= c1ccc2cc3c(ccc4cccnc43)cc2c1 returns the recorded outcome of this test.
true (1)

GET /call?item= CN(C)CCC=C1c2ccccc2CCc2ccccc21 returns the recorded outcome of this test.
false (0)

GET /call?item= CCCC[C@@H](C)[C@@H](OC(=O)C[C@@H](CC(=O)O)C(=O)O)[C@H](C[C@@H](C)C[C@H](O)CCCC[C@@H](O)C[C@H](O)[C@H](C)N)OC(=O)C[C@@H](CC(=O)O)C(=O)O returns the recorded outcome of this test.
false (0)

GET /call?item= c1cnccn1 returns the recorded outcome of this test.
false (0)

GET /call?item= Oc1ccc2ccc3c4c(ccc3c2c1)[C@@H](O)[C@H](O)C=C4 returns the recorded outcome of this test.
true (1)
